# Potency listing for each entry below
# Study target: Cruzipain (Trypanosoma cruzi)
# Assay summary: qHTS Assay for Promiscuous and Specific Inhibitors of Cruzain (without detergent); note: nearly all actives have a fitted effect of over 40% in size; note: potency is the fitted concentration of half-maximal effect
# Measurement parameters: purified cruzain, Z-FR-AMC fluorescence, no detergent
Screen size: about 200,000 compounds; about 4,500 (2.2%) were called active. About 12% were inconclusive and are not listed. Many of the other results were omitted from the sample, so actives are more common in it than they were.

>>> value("O=C(CN1C(=O)/C(=C\\c2ccccc2F)SC1=S)Nc1nc2ccccc2s1")
"7.94 µM (active)"
>>> value("O=C1CN(c2nc(-c3ccccc3)c3cc(Br)ccc3n2)c2ccccc2N1")
"12.6 µM (active)"
>>> value("O=C(/C=C/Nc1ccccc1)c1cnc(-c2ccccc2)s1")
"12.6 µM (active)"
>>> value("COc1cc(/C=N/NC(=O)Nc2ccccc2)ccc1OCCOc1ccccc1C")
"25.1 µM (active)"

I'd like to know its Potency. The molecule in question is O=C(Nc1ccc2c(c1)CCC2)c1cccc(S(=O)(=O)N2CCN(c3ccc(F)cc3)CC2)c1 20 µM (active)

Request: CCOC(=O)c1c(NC(=S)NC(=O)c2ccco2)sc2c1CCCC2 12.6 µM (active)

Request: Cc1ccccc1OC/C(O)=C(\C#N)c1nc2ccccc2[nH]1 20 µM (active)

Request: COc1ccc([N+](=O)[O-])cc1C1NN=C(c2cccc3ccccc23)S1 (stereo not drawn) 7.94 µM (active)

Request: CCOC(=O)c1c(NC(=O)C2CCN(S(=O)(=O)c3ccc(Cl)cc3)CC2)sc2c1CCCC2 15.8 µM (active)

----------
# Study target: Cruzipain (Trypanosoma cruzi) (UniProt P25779)
# Sequence (P25779 123-467 limits assumed): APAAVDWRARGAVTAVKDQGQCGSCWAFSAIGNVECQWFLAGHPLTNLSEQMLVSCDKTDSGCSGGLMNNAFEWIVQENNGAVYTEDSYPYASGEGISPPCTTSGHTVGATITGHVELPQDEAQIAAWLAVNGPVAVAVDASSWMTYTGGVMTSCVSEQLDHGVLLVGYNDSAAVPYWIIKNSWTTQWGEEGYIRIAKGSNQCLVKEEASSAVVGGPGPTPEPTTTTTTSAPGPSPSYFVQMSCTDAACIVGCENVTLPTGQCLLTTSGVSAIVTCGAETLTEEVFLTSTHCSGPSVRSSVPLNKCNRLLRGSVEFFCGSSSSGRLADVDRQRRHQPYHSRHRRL
# Assay summary: qHTS Assay for Promiscuous and Specific Inhibitors of Cruzain (without detergent); note: nearly all actives have a fitted effect of over 40% in size;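 for max response, negative = inhibition: plate controls were enzyme without inhibitor for no effect and buffer without enzyme for full effect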
# Measurement parameters: purified cruzain, Z-FR-AMC fluorescence, no detergent
Among all 200,000 compounds or so, about 4,500 (2.2%) were called active. Another 12% or so got no clear call; they are omitted. This is one part of a sample in which actives are shown more often than they occur.
Observed property: max response, negative = inhibition (%)
// units = %; emit number, no label

>>> value("CCn1c(C(=O)Nc2cc(Cl)ccc2C)cc2sc(Cl)cc21")
4.79
>>> value("O=C(Nc1nc(-c2ccncc2)cs1)C1COc2ccccc2O1 (configuration not stated)")
-4.88
>>> value("Cc1ccc(N2CC(C(=O)Nc3ccc(N(C)C)cc3)CC2=O)cc1Cl (configuration not stated)")
-3.38

I'd like to know its max response, negative = inhibition. The compound in question is CCNC(=O)c1cc2n(n1)CCCN(Cc1ccc(C)cc1)C2=O 4.87

Request: C=CCNc1nnc(C)c2ccccc12 -10.1

Request: CC(C)CNS(=O)(=O)c1ccc(OCC(=O)Nc2ccc3c(c2)OCO3)c(Cl)c1 -2.91

Request: CCc1ccc(NC(=O)CN2CCSc3ccc(S(=O)(=O)N4CCCC4)cc32)cc1 -26.3

Request: O=C(CSc1nc2ccccc2nc1Cc1ccccc1)N1CCCCC1 -0.222

Request: O=C(ON=C1CCN(S(=O)(=O)c2ccccc2)CC1)c1ccc(Cl)cc1 20.4

Request: CC(=O)c1ccc(N2CCN(c3nc4c(S(=O)(=O)c5ccccc5)nnn4c4ccc(Cl)cc34)CC2)cc1 0.808

Request: O=C(NCCc1ccccc1)/C(=C\c1ccc([N+](=O)[O-])cc1)NC(=O)c1ccccc1 -28.6

Request: Cc1cc(C)cc(NS(=O)(=O)c2cc3c(cc2C)NC(=O)CO3)c1 6.94

Request: Cc1ccc(S(=O)(=O)N2CCC(Oc3ccc(-n4cnnn4)cc3)CC2)cc1 8.75

Request: COc1cc2nc(NCC(C)c3ccccc3)n3nc(-c4ccccc4)nc3c2cc1OC (configuration not stated) 5.17

Request: O=C(Cn1ncn2nc(-c3cccs3)cc2c1=O)NCc1cccc(Br)c1 -9.74

Request: CN(Cc1ccccc1)C(=O)c1cc2c(=O)n(C)c3ccccc3c2s1 3.44

Request: Cc1csc2nc(COC(=O)c3ccccc3NC(=O)c3ccccc3Cl)cc(=O)n12 -1.98

Request: O=C(Nc1nc2ccc(F)cc2s1)c1nc(SCc2ccccc2F)ncc1Cl 1.9

Request: Cc1ccccc1CNC(=O)C1CCCN(S(=O)(=O)N(C)c2ccc(F)cc2)C1 (configuration not stated) 7.13

Request: COc1ccc2cc(CNc3ccc(OC)c(OC)c3)c(=O)n(CC(=O)Nc3ccccc3F)c2c1 13.9

Request: CCC(=O)N1CCc2cc(S(=O)(=O)NC(CC(C)C)C(=O)NCCc3cccc(C)c3)ccc21 (configuration not stated) -3.67

Request: CSc1nc(-c2ccccc2Cl)nc2c1Cc1c(CO)cnc(C)c1O2 -8.02

Request: Cc1c(Cl)cccc1NC(=O)C1CCCN(C(=O)c2cnn(-c3ccccc3)c2-n2cccc2)C1 (configuration not stated) 17.7
